Data origin: patent US6340687B1

Reported melting point values follow for various compounds

Cc1cc(Cl)ccc1N1CCCN(C)C1=S; 143 to 145 °C
C=CCN1CCCN(c2cc(Cl)ccc2C)C1=S; 71 to 72 °C
Cc1cccc(Cl)c1N1CCCN(C)C1=S; 164 to 165 °C
Cc1cc(Cl)ccc1N1CCCNC1=S; 266 to 268 °C
Cc1ccc(Cl)cc1N1CCCN(C(C)C)C1=S; 176 to 178 °C

Kindly review the next compound as well.
Recorded result, Cc1cc(Cl)ccc1N1CCCN(CC(C)C)C1=S , melting point: 88 to 90 °C

###

test-readout: melting point

C=CCN1CCCN(c2c(C)cccc2Cl)C1=S [Example 12]; 82 to 84 °C
Cc1cccc(Cl)c1N1CCCN(C2CCC2)C1=S [Example 18]; 89 to 91 °C
S=C1NCCCN1c1ccccc1 [Example 2]; 211 to 212 °C
Cc1ccc(Cl)cc1N1CCCN(C)C1=S [Example 9]; 143 to 145 °C
Cc1cccc(Cl)c1N1CCCN(CC(C)C)C1=S [Example 20]; 119 to 121 °C

Recorded result, CCN1CCCN(c2ccc(Cl)cc2C)C1=S [Example 3] , melting point: 116 to 118 °C

Recorded result, CCN1CCCN(c2cc(Cl)ccc2C)C1=S [Example 5] , melting point: 111 to 112 °C

Recorded result, Cc1cc(Cl)ccc1N1CCCN(C(C)C)C1=S [Example 7] , melting point: 147 to 149 °C

Recorded result, CCN1CCCN(c2c(C)cccc2Cl)C1=S [Example 16] , melting point: 88 to 90 °C

Recorded result, Cc1cccc(Cl)c1N1CCCN(C(C)C)C1=S [Example 15] , melting point: 135 to 136 °C

Recorded result, Cc1ccc(Cl)cc1N1CCCN(C2CCC2)C1=S [Example 19] , melting point: 152 to 154 °C

Recorded result, Cc1cccc(C)c1N1CCCNC1=S [Example 4] , melting point: 249 to 251 °C
